- Test system: HCT-116
- assay_summary: Cell growth, CellTiter-Glo Luminescent Cell Viability Assay (antiproliferative assay)
- Type: cell-based
- condition: HCT-116 cells, incubated for 72 h; read-out: HCT116 IC50
pIC50: −log10 of the molar value.
reported_endpoint: pIC50

State its pIC50 for this compound: O=C(/C=C/c1ccc2c(c1)C(=O)CC1(CCN(Cc3ccccc3)C1)O2)NO (single isomer, unassigned; (+)) [Example 4]
≥ 6.00

----------
For each entry below, report its IC50 value.
- assay_target: HDAC
- assay_summary: Assay of enzyme inhibition of HDAC (BIOMOL kit, fluorescence)
- condition: nuclear fraction of Hela cells; substrate 200 µM; 15 min at RT

State its IC50 for this compound: O=C(/C=C/c1ccc2c(c1)C(=O)CC1(CN(CCc3ccccc3)C1)O2)NO
0.1 to 1 µM

State its IC50 for this compound: O=C(/C=C/c1ccc2c(c1)C(=O)CC1(CCN(Cc3ccccc3)C1)O2)NO (racemic) [Example 2]
≤ 0.1 µM

State its IC50 for this compound: O=C(/C=C/c1ccc2c(c1)C(=O)CC1(CN(CCc3ccc(F)cc3)C1)O2)NO
0.1 to 1 µM

State its IC50 for this compound: O=C(/C=C/c1ccc2c(c1)C(=O)CC1(CCN(Cc3ccccc3)C1)O2)NO (single isomer, unassigned; (+)) [Example 4]
≤ 0.1 µM

----------
- assay_target: HDAC
- assay_summary: Assay of enzyme inhibition of HDAC (BIOMOL kit, fluorescence)
- Type: biochemical
- condition: nuclear fraction of Hela cells; substrate 200 µM; 15 min at RT
- Method: The in-vitro activity of HDAC inhibitors was assayed using a BIOMOL Kit, according to the instructions from the manufacturer (Biomolecular Research Laborator). […] In this last step a fluorophore was produced, whose fluorescence was measured using an excitation wavelength of 355 nm and an emission at 460 nm. The IC50 was calculated using GraphPad Software.
For each entry below, report its IC50 value.

State its IC50 for this molecule: O=C(/C=C/c1ccc2c(c1)C(=O)CC1(CCN(Cc3ccccc3)C1)O2)NO (single isomer, unassigned; (-)) [Example 3]
≤ 100 nM

State its IC50 for this molecule: O=C(/C=C/c1ccc2c(c1)C(=O)CC1(CCN(CCc3ccccc3)C1)O2)NO (racemic)
≤ 100 nM

State its IC50 for this molecule: O=C(/C=C/c1ccc2c(c1)C(=O)CC1(CCCNC1)O2)NO (racemic)
100 to 1000 nM

State its IC50 for this molecule: O=C(/C=C/c1ccc2c(c1)C(=O)CC1(CNC1)O2)NO
100 to 1000 nM

----------
- assay_target: HDAC
- assay_summary: Assay of enzyme inhibition of HDAC (BIOMOL kit, fluorescence)
- Format: biochemical
- condition: nuclear fraction of Hela cells; substrate 200 µM; 15 min at RT
pIC50: −log10 of the molar value.
reported_endpoint: pIC50

Under HDAC: report pIC50 of CC(=O)N1CCCC2(CC1)CC(=O)c1cc(/C=C/C(=O)NO)ccc1O2 (racemic) .
6.00 to 7.00

Under HDAC: report pIC50 of Cn1cc(CN2CCCC3(C2)NC(=O)c2cc(/C=C/C(=O)NO)ccc2O3)c2ccccc21 (racemic) .
6.00 to 7.00

Under HDAC: report pIC50 of CC(C)N1CCCC2(CC(=O)c3cc(/C=C/C(=O)NO)ccc3O2)C1 (racemic) .
6.00 to 7.00

Under HDAC: report pIC50 of O=C(/C=C/c1ccc2c(c1)C(=O)CC1(CCCNCC1)O2)NO (racemic) .
6.00 to 7.00

Under HDAC: report pIC50 of O=C(/C=C/c1ccc2c(c1)C(=O)CC1(CCCN(Cc3ccccc3)C1)O2)NO (racemic) [Example 13] .
≥ 7.00

Under HDAC: report pIC50 of O=C(/C=C/c1ccc2c(c1)C(=O)CC1(CCN(Cc3ccc(F)cc3)C1)O2)NO (racemic) .
6.00 to 7.00

Under HDAC: report pIC50 of O=C(/C=C/c1ccc2c(c1)C(=O)CC1(CCCN(Cc3ccccc3)C1)O2)NO (single isomer, unassigned; (-)) [Example 17] .
≥ 7.00

Under HDAC: report pIC50 of CN1CCCC2(C1)NC(=O)c1cc(/C=C/C(=O)NO)ccc1O2 (racemic) .
6.00 to 7.00

Under HDAC: report pIC50 of CN1CCCC2(CC1)CC(=O)c1cc(/C=C/C(=O)NO)ccc1O2 (racemic) .
6.00 to 7.00

Under HDAC: report pIC50 of O=C(/C=C/c1ccc2c(c1)C(=O)CC1(CCCN(C3CCCC3)C1)O2)NO (racemic) .
≥ 7.00

Under HDAC: report pIC50 of O=C(/C=C/c1ccc2c(c1)C(=O)NC1(CCCN(Cc3ccccc3)C1)O2)NO (racemic) .
≥ 7.00

Under HDAC: report pIC50 of CC(=O)N1CCCC2(CC(=O)c3cc(/C=C/C(=O)NO)ccc3O2)C1 (racemic) .
6.00 to 7.00

Under HDAC: report pIC50 of Cn1cc(CN2CCCC3(CC(=O)c4cc(/C=C/C(=O)NO)ccc4O3)C2)c2ccccc21 (racemic) .
6.00 to 7.00

Under HDAC: report pIC50 of O=C(/C=C/c1ccc2c(c1)C(=O)CC1(CN(C(=O)c3ccccc3)C1)O2)NO .
≥ 7.00

Under HDAC: report pIC50 of CN1CCCC2(CC(=O)c3cc(/C=C/C(=O)NO)ccc3O2)C1 (racemic) .
6.00 to 7.00

Under HDAC: report pIC50 of Cn1cc(CN2CCCC3(CC2)CC(=O)c2cc(/C=C/C(=O)NO)ccc2O3)c2ccccc21 (racemic) .
6.00 to 7.00

Under HDAC: report pIC50 of CCN1CCCC2(CC(=O)c3cc(/C=C/C(=O)NO)ccc3O2)C1 (racemic) .
6.00 to 7.00

Under HDAC: report pIC50 of O=C(/C=C/c1ccc2c(c1)C(=O)CC1(CCCN(C(=O)c3ccccc3)C1)O2)NO (racemic) .
6.00 to 7.00

Under HDAC: report pIC50 of O=C(/C=C/c1ccc2c(c1)C(=O)CC1(CCCN(Cc3ccccc3)C1)O2)NO (single isomer, unassigned; (+)) [Example 18] .
6.00 to 7.00

Under HDAC: report pIC50 of O=C(/C=C/c1ccc2c(c1)C(=O)NC1(CCCNC1)O2)NO (racemic) .
6.00 to 7.00

Under HDAC: report pIC50 of CCOC(=O)N1CCC2(CC(=O)c3cc(/C=C/C(=O)NO)ccc3O2)C1 (racemic) .
6.00 to 7.00

Under HDAC: report pIC50 of CON=C1CC2(CCCN(Cc3ccc(F)cc3)C2)Oc2ccc(/C=C/C(=O)NO)cc21 (stereo not shown) .
≤ 6.00

Under HDAC: report pIC50 of CCOC(=O)N1CCCC2(CC(=O)c3cc(/C=C/C(=O)NO)ccc3O2)C1 (racemic) .
6.00 to 7.00

Under HDAC: report pIC50 of CCOC(=O)N1CCCC2(CC1)CC(=O)c1cc(/C=C/C(=O)NO)ccc1O2 (racemic) .
6.00 to 7.00

Under HDAC: report pIC50 of O=C(/C=C/c1ccc2c(c1)C(=NO)CC1(CCCN(C3CCCC3)C1)O2)NO (stereo not shown) .
≥ 7.00

Under HDAC: report pIC50 of O=C(/C=C/c1ccc2c(c1)C(=O)CC1(CN(Cc3ccc(F)cc3)C1)O2)NO .
6.00 to 7.00

Under HDAC: report pIC50 of CN1CC2(CC(=O)c3cc(/C=C/C(=O)NO)ccc3O2)C1 .
6.00 to 7.00

Under HDAC: report pIC50 of CC(=O)N1CCC2(CC(=O)c3cc(/C=C/C(=O)NO)ccc3O2)C1 (racemic) .
6.00 to 7.00

Under HDAC: report pIC50 of Cn1cc(CN2CC3(CC(=O)c4cc(/C=C/C(=O)NO)ccc4O3)C2)c2ccccc21 .
≥ 7.00

Under HDAC: report pIC50 of CCOC(=O)N1CC2(CC(=O)c3cc(/C=C/C(=O)NO)ccc3O2)C1 .
6.00 to 7.00

Under HDAC: report pIC50 of O=C(/C=C/c1ccc2c(c1)C(=O)CC1(CCCN(CCc3ccccc3)C1)O2)NO (racemic) .
≥ 7.00
